biological target: Ca^2+-loaded S100B (Rattus norvegicus, UniProt P04631); experiment: Fluorescence polarization competition assay; type: binding; conditions: Site 1 probe; result in words
Sequence (P04631 whole entry): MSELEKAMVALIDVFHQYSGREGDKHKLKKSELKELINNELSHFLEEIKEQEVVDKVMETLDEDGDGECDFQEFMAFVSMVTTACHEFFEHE
quantity name: ability to compete with TAMRA-TRTK probe in FPCA

compound="N=C(NCCCCCCCN)c1ccc(OCCCCCCCCOc2ccc(C(=N)NCCCCCCCN)cc2)cc1 [9b]" measured_value="found to compete"
compound="N=C(NCCCCCN)c1ccc(OCCCCCOc2ccc(C(=N)NCCCCCN)cc2)cc1 [compound 8]" measured_value="found to compete"
compound="N=C(NCCCCCCCN)c1ccc(OCCCCCCCOc2ccc(C(=N)NCCCCCCCN)cc2)cc1 [9a]" measured_value="found to compete"

###

system: WM115 melanoma cells; experiment: Cellular assays, EC50 quoted in text without S100B level; type: cell-based, human; settings: Homo sapiens, WM-115, read-out: EC50 in cellular assays
pEC50: −log10 of the molar value.
Entries and their measured pEC50 follow.

Completed entries (count: 5):
compound="c1cc(C2=NCCCN2)ccc1OCCCCCCOc1ccc(C2=NCCCN2)cc1 [6c]" quantity_name=pEC50 measured_value="4.35 to 4.60"
compound="N=C(NC(=O)Nc1ccccc1)c1ccc(OCCCCCCCOc2ccc(C(=N)NC(=O)Nc3ccccc3)cc2)cc1 [compound 10]" quantity_name=pEC50 measured_value="> 6.00"
compound="c1cc(C2=NCCCN2)ccc1OCCCCCCCOc1ccc(C2=NCCCN2)cc1 [6a]" quantity_name=pEC50 measured_value="3.22 to 3.70"
compound="c1cc(C2=NCCCN2)ccc1OCCCCCOc1ccc(C2=NCCCN2)cc1 [6b]" quantity_name=pEC50 measured_value="3.22 to 3.70"
compound="CNC(=O)NC(=N)c1ccc(OCCCCCCCOc2ccc(C(=N)NC(=O)NC)cc2)cc1 [compound 11]" quantity_name=pEC50 measured_value="3.82 to 3.89"

Consider the compound c1cc(C2=NCCCCN2)ccc1OCCCCCCOc1ccc(C2=NCCCCN2)cc1 [7c] and give its measured pEC50.
3.52 to 3.60

Consider the compound c1cc(C2=NCCCCN2)ccc1OCCCCCCCOc1ccc(C2=NCCCCN2)cc1 [7a] and give its measured pEC50.
4.70 to 5.30

Consider the compound N=C(NCCCCCN)c1ccc(OCCCCCOc2ccc(C(=N)NCCCCCN)cc2)cc1 [compound 8] and give its measured pEC50.
4.40 to 4.46
